Kindly supply the reported self-cleavage values for the records listed here.
B1: CPEB3 Ribozyme (parent)
chain: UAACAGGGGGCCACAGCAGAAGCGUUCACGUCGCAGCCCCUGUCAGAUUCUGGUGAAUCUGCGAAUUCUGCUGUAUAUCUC

Variants of: B1
measurement_notes: self-cleavage, relative activity (ratio to wild type); higher = more cleavage; in vitro, sequencing

- mutant_id: "A21G G42A"
  self-cleavage: 0.25
- mutant_id: "C37U A77G"
  self-cleavage: 0.78
- mutant_id: "A15G C27A"
  self-cleavage: 0.21
- mutant_id: "G9U U76A"
  self-cleavage: 0.39
- mutant_id: "C59A C68A"
  self-cleavage: 0.19

Could you tell me self-cleavage for each of these variants? They are listed below.
1. G53C A75U
2. A28G C81G
3. A3C A45U
4. A64U C71A

1: 1.12; 2: 0.42; 3: 0.89; 4: 0.18

Could you tell me self-cleavage for each of these variants? They are listed below.
1. A28C A35C
2. U1A U60A

[0.4, 0.56]
